Quick list: Growth Rate per entry.
Tested on: HEK-293T
ASSAY_PROTOCOL: Incucyte cell viability with HEK293T; further: unitless GR value; below 1 slowed growth and below 0 cell loss
Type: toxicity, cell-based
CONDITION_PARAMETERS: human, 0 h, 10 µM, compound concentration 10 uM, replicate number 2, timepoint 0 hours
Where a SMILES comes first, the peptide text is derived from it. [ ]: non-standard residue; d: D form. Arg(Me) = CNC(=N)NCCC[C@H](N)C(=O)O; d3Pal = N[C@H](Cc1cccnc1)C(=O)O; azaGly = NNC(=O)O
REPORTED_PROPERTY: Growth Rate

[[record]]
compound = "CCNC(=O)[C@H]1O[C@@H](n2cnc3c(N)ncnc32)[C@H](O)[C@@H]1O.O"
system_under_test = "HEK-293T"
endpoint_result = -0.27

[[record]]
compound = "O=C(O)c1ccccc1S(=O)(=O)NCCCCN1C(=O)c2cccc3cccc(c23)C1=O"
system_under_test = "HEK-293T"
endpoint_result = 0.31

[[record]]
compound = "COc1cc2nc(N3CCN(C(=O)COc4c(OC)cccc4C(C)C)CC3)nc(N)c2cc1OC.Cl.Cl"
system_under_test = "HEK-293T"
endpoint_result = 0.59

[[record]]
compound = "O=C(c1cc(C2CC2)on1)N(C1CCCCC1)C1CCCCC1"
system_under_test = "HEK-293T"
endpoint_result = 0.08

[[record]]
compound = "CNC(=N)NCCC[C@H](NC(=O)[C@H](CC(C)C)NC(=O)NNC(=O)[C@H](Cc1ccccc1)NC(=O)[C@H](CO)NC(=O)[C@H](CC(N)=O)NC(=O)[C@@H](Cc1cccnc1)NC(=O)[C@H](N)Cc1ccc(O)cc1)C(=O)NCC(N)=O [KISS1-543] (H-[dY][d3Pal]NSF[azaGly]L[Arg(Me)]G-NH2)"
system_under_test = "HEK-293T"
endpoint_result = 0.71

[[record]]
compound = "Cc1nn(C)c(C)c1-c1cccc2c1CC[C@H](N(C)C)C2"
system_under_test = "HEK-293T"
endpoint_result = 0.25

[[record]]
compound = "Cl.FC(F)(F)c1ccc(N2CCNCC2)nc1Cl"
system_under_test = "HEK-293T"
endpoint_result = 0.55

[[record]]
compound = "Br.Br.c1ncc(CC2CCNCC2)[nH]1"
system_under_test = "HEK-293T"
endpoint_result = 0.07

[[record]]
compound = "Cc1ccccc1-c1cc(N2CCN(C)CC2)ncc1N(C)C(=O)C(C)(C)c1cc(C(F)(F)F)cc(C(F)(F)F)c1 [NETUPITANT]"
system_under_test = "HEK-293T"
endpoint_result = 0.7

[[record]]
compound = "CS(=O)(=O)c1ccc(C(=O)Nc2ccc(Cl)c(-c3ccccn3)c2)c(Cl)c1 [VISMODEGIB]"
system_under_test = "HEK-293T"
endpoint_result = 0.86

[[record]]
compound = "CC(C)c1c(NC(=O)Nc2ccc(Cl)cc2)c(=O)n(-c2ccccc2)n1C"
system_under_test = "HEK-293T"
endpoint_result = 0.92

[[record]]
compound = "CCc1cc2c(cc1-c1cccc(S(=O)(=O)F)c1)C(C)(C)c1[nH]c3cc(C#N)ccc3c1C2=O"
system_under_test = "HEK-293T"
endpoint_result = 0.5

[[record]]
compound = "O=C(Nc1cc(C(F)(F)F)ccc1N1CCCCC1)c1ccncc1"
system_under_test = "HEK-293T"
endpoint_result = 0.52

[[record]]
compound = "CN(C(=O)/C=C/c1ccoc1)[C@@H]1CC[C@@]2(O)[C@H]3Cc4ccc(O)c5c4[C@@]2(CCN3CC2CC2)[C@H]1O5 [NALFURAFINE]"
system_under_test = "HEK-293T"
endpoint_result = 0.49

[[record]]
compound = "CS(=O)(=O)N1CCCC(NC(=O)[C@H](CCC2CCCCC2)NC(=O)c2ccc(CNc3ncnc4c3nnn4-c3ccccc3)cc2)C1 (stereo not given in full) [SR-301]"
system_under_test = "HEK-293T"
endpoint_result = 0.12

[[record]]
compound = "O=C(O)c1nc2ccccc2c2[nH]c3c(I)cccc3c12"
system_under_test = "HEK-293T"
endpoint_result = 0.84

[[record]]
compound = "CC(C)Oc1ccc(F)c(-c2cnc(N)c(C(=O)Nc3cnccc3N3CCC[C@@H](C(=O)O)C3)n2)c1"
system_under_test = "HEK-293T"
endpoint_result = 0.07

[[record]]
compound = "CC(C)c1cc(-c2ccc(F)c3ccccc23)nc(N)n1"
system_under_test = "HEK-293T"
endpoint_result = 0.76

[[record]]
compound = "Cc1cnc(-c2cc(N3CCN(C(=O)CCS(C)(=O)=O)CC3)ncc2Cl)c(C)c1"
system_under_test = "HEK-293T"
endpoint_result = 0.96

[[record]]
compound = "CCc1nn2c(C)cc(C)nc2c1Cc1ccc(-c2nnc(C3CCNCC3)o2)cc1"
system_under_test = "HEK-293T"
endpoint_result = 0.38

[[record]]
compound = "CCCN1CCC[C@@H]2Cc3n[nH]cc3C[C@H]21.Cl [QUINPIROLE HYDROCHLORIDE]"
system_under_test = "HEK-293T"
endpoint_result = 0.26

[[record]]
compound = "Cc1nn(C)c2nc(NNC(=O)Nc3cc(Cl)nc(Cl)c3)cc(C(C)C)c12"
system_under_test = "HEK-293T"
endpoint_result = 0.57

[[record]]
compound = "O=C(O)c1cc2ccccc2c(Cc2c(O)c(C(=O)O)cc3ccccc23)c1O [PAMOIC ACID]"
system_under_test = "HEK-293T"
endpoint_result = 0.89

[[record]]
compound = "CCCCCCCCCCCCCCC[C@@H](O)[C@@H](N)COP(=O)(O)O"
system_under_test = "HEK-293T"
endpoint_result = 0.71

[[record]]
compound = "O=C(NCC(=O)N1CC[C@H](N[C@H]2CC[C@@](O)(c3ccc(-c4ncccn4)cn3)CC2)C1)c1cccc(C(F)(F)F)c1 [PF-4136309]"
system_under_test = "HEK-293T"
endpoint_result = 0.66

[[record]]
compound = "Cc1nc(C#Cc2cccnc2)cs1.Cl"
system_under_test = "HEK-293T"
endpoint_result = 0.23

[[record]]
compound = "Cc1cccc(S(=O)(=O)N(C)[C@H](C)CCN2CCC(C)CC2)c1.Cl"
system_under_test = "HEK-293T"
endpoint_result = 0.65

[[record]]
compound = "CSc1nc(NC2CCCC2)c([N+](=O)[O-])c(NC2CCCC2)n1 [GS-39783]"
system_under_test = "HEK-293T"
endpoint_result = 0.78

[[record]]
compound = "CCOc1c2c(c(OCC)c3ncccc13)CN(c1ccc(CS(=O)(=O)NC(=O)Cc3ccccc3OC)cc1C)C2=O"
system_under_test = "HEK-293T"
endpoint_result = 0.82

[[record]]
compound = "CC(=O)Nc1cccc2c1c(Sc1ccc(Cl)cc1)c(C)n2CC(=O)O [AZD1981]"
system_under_test = "HEK-293T"
endpoint_result = 0.75

[[record]]
compound = "CCCCCCCC/C=C\\CCCCCCCC(N)=O [OLEAMIDE]"
system_under_test = "HEK-293T"
endpoint_result = 0.35

[[record]]
compound = "C[C@]1(O)CC[C@H]2[C@@H]3CCC4=CC(=O)CCC4=C3C=C[C@@]21C [METRIBOLONE]"
system_under_test = "HEK-293T"
endpoint_result = 0.59

[[record]]
compound = "Cc1c(C(=O)NN2CCCCC2)nn(-c2ccc(Cl)cc2Cl)c1-c1ccc(Cl)cc1 [RIMONABANT]"
system_under_test = "HEK-293T"
endpoint_result = -0.01

[[record]]
compound = "CCCCC1=NC2(CCCC2)C(=O)N1Cc1ccc(-c2ccccc2-c2nnn[nH]2)cc1 [IRBESARTAN]"
system_under_test = "HEK-293T"
endpoint_result = 0.31

[[record]]
compound = "Cc1ccc2c(c1CCC(=O)O)CC[C@@H](NS(=O)(=O)c1ccc(Cl)cc1)C2 [TERUTROBAN]"
system_under_test = "HEK-293T"
endpoint_result = 0.31

